Target: Rap guanine nucleotide exchange factor 3 (Homo sapiens)
Assay: Confirmatory qHTS for antagonist of cAMP-regulated guanine nucleotide exchange factor 3 (EPAC1) (AID 1645880); note: nearly all actives have a fitted effect of over 55% in size
Details: EPAC1 Rap1B-BODIPY-GDP exchange, fluorescence; series mostly up to 115 µM
Records with an inconclusive call do not appear. Active and inactive are the calls of the source. Calls come from the whole dose curve; as a rule, active = well fitted inhibition curve with a large enough effect; inconclusive = small, poorly fitted or top-dose-only effect; inactive = no such curve, though single readings can be large or run the other way.
Outcomes: Y = active, N = inactive

- COc1cc2c(-c3ccc4c(c3)OCO4)c(-c3ccsc3)oc(=O)c2cc1OC: N
- Cc1ccccc1OCc1nc2ccccc2n1Cc1ccccc1Cl: N
- CCOC(=O)c1oc2ccccc2c1CN1CCN(C(=O)c2ccccc2)CC1: N
- Cc1cc(=O)n2c(sc3ccccc32)c1C#N: N
- CCOc1ccc(NC(=O)CN(C)C(=O)c2cc3c(s2)CCC3)cc1OCC: Y
- Cc1nn(CC(=O)N(C)C2CCS(=O)(=O)C2)c(C)c1[N+](=O)[O-] (stereo not given): N
- CCCn1c(N)c(C(=O)CSc2n[nH]c(-c3ccc(C)cc3)n2)c(=O)[nH]c1=O: N
- COc1ccc(C(C#N)N2N=C(C)CC2c2ccccc2)cc1 (stereo not given): N
- CC1Cc2nc(SCC(=O)NCc3ccccc3)n(Cc3ccccc3)c(=O)c2S1 (stereo not given): N
- CC(=O)Nc1ccc(C=NNc2ccc(S(=O)(=O)Nc3ccccc3C(=O)O)cc2[N+](=O)[O-])cc1: Y

---

Biological target: Rap guanine nucleotide exchange factor 3 (Homo sapiens) (UniProt O95398)
Sequence (O95398 whole entry, looked up): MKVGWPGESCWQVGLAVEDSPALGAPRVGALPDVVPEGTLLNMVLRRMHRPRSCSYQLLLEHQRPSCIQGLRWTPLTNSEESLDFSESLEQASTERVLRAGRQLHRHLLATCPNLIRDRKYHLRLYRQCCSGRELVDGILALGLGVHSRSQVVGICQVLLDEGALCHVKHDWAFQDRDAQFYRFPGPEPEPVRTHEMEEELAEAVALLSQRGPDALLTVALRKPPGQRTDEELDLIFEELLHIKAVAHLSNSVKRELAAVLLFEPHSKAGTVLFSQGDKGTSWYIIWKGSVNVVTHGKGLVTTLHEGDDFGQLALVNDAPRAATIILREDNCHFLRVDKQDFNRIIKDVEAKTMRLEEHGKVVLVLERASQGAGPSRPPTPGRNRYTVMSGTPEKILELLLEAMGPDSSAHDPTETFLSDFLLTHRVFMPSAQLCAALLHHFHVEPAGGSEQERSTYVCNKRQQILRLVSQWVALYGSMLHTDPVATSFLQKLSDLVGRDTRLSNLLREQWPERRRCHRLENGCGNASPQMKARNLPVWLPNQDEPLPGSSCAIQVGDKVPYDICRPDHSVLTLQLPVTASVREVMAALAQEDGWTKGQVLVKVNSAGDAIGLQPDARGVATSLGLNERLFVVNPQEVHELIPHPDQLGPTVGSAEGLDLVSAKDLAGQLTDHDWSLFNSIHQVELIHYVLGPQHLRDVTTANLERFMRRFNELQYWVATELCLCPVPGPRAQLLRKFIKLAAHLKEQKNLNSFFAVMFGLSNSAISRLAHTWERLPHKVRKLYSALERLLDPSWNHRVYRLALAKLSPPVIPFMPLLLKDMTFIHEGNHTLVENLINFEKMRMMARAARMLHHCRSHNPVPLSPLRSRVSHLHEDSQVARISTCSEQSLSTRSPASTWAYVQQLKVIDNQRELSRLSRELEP
Assay: Counterscreen qHTS for agonist of cAMP-regulated guanine nucleotide exchange factor 3 (EPAC1) (AID 1645889); note: % of control where 0% means no effect; nearly all actives have a fitted effect of over 40% in size
Settings: EPAC1 Rap1B-BODIPY-GDP exchange, fluorescence; series mostly up to 154 µM
Text: Assay Provider (PI): Xiaodong Cheng Ph.D. The University of Texas Medical Branch, […], TX MLPCN Grant: NS066510 In multi-cellular eukaryotic organisms, the effects of cAMP are transduced by two ubiquitously-expressed intracellular cAMP receptors, the classic protein kinase A/cAMP-dependent protein kinase (PKA/cAPK) and the more recently discovered exchange protein directly activated by cAMP/cAMP-regulated guanine nucleotide exchange factor (EPAC/cAMP-GEF). […]
Records with an inconclusive call do not appear. Activity calls are given as the source filed them. The call rests on the fitted dose curve; in most records, active means well fitted activation curve with a large enough effect; inconclusive means small, poorly fitted or top-dose-only effect, or another doubt; inactive means no such curve, though single readings can be large or run the other way.
observed-property: activation

• Cc1ccc2[nH]cc(C(c3ccccc3)c3ccc(C)s3)c2c1 (configuration not stated) = inactive
• CCCCC(=O)Nc1cccc(NC(=O)c2ccccc2Br)c1 = inactive
• CC(=O)Nc1ccc(C=NNc2ccc(S(=O)(=O)Nc3ccccc3C(=O)O)cc2[N+](=O)[O-])cc1 = 13.4% [at 30.8 µM] (inactive)
• CC(OC(=O)CN1C(=O)COc2ccccc21)C(=O)NCc1ccc(F)cc1 (configuration not stated) = inactive
• COc1cc(CCc2ccccc2)c(C(=O)O)c(O)c1CC=C(C)C = inactive
• O=C(Cc1ccccc1)NCC(=O)N1CCC1 = inactive
• O=S(=O)(Nc1nccs1)c1ccc(NCc2cc(Br)cc(Br)c2O)cc1 = 31.2% [at 30.8 µM] (inactive)
• O=C(Nc1cccc(Cl)c1)OC1CCCCc2cccnc21 (configuration not stated) = 25.6% [at 30.8 µM] (inactive)
• COc1cc(OC)nc(Oc2cc(/C=N/O)ccc2OC)n1 = 1.61% [at 30.8 µM] (inactive)
• COc1ccc(N2CCN(C(=O)CSc3ncn[nH]3)CC2)cc1 = inactive
• COc1ccc(CCNC(=O)CSc2nc(N)c(C#N)c(-c3cccs3)c2C#N)cc1OC = 20.5% [at 30.8 µM] (inactive)
• CC1=C(C(=O)NC2CCC(C)CC2)C2(CCC(C)CC2)OC1=O (configuration not stated) = -0.546% [at 30.8 µM] (inactive)
• O=C(CSCC(=O)N1CCOCC1)Nc1nc(-c2ccccc2)cs1 = inactive
• O=C(/C=C/c1ccc([N+](=O)[O-])cc1)Nc1cccc(C(=O)Nc2ccccc2C(=O)O)c1 = 4.73% [at 30.8 µM] (inactive)
• Cc1cc(C)c(C(=O)c2cccs2)c(C)c1 = inactive
• c1ccc(-c2nc(C3CCCCC3)c3ccccc3n2)cc1 = 34% [at 30.8 µM] (inactive)
• CCC(C)NC(=O)Cn1c(=O)n(CCCCCC(=O)Nc2ccccc2)c(=O)c2sccc21 (configuration not stated) = inactive
• CC1CCCN(CC(=O)Nc2cc(Cl)ccc2Oc2ccccc2)C1 (configuration not stated) = inactive
• CC(OC(=O)CCN1C(=O)C2CC=CCC2C1=O)C(=O)Nc1cccc(C#N)c1 (configuration not stated) = 3.18% [at 30.8 µM] (inactive)
• Cc1cccc(NC(=O)CN2C(=O)S/C(=C\c3ccc(O)c([N+](=O)[O-])c3)C2=O)c1 = inactive
• CC1(C(=O)NS(=O)(=O)c2cccc(F)c2)CCN1C(=O)C1(c2ccc(Cl)cc2)CCC1 (configuration not stated) = inactive
• O=C(Cn1nnc2sc(-c3ccccc3)cc2c1=O)Nc1cccc(C(F)(F)F)c1 = inactive

---

System: N140
Assay: qHTS profiling for inhibitors of Plasmodium falciparum proliferation (AID 504749);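 note: 0% = DMSO vehicle and full inhibition = artemisinin control; nearly all actives have a fitted effect of over 60% in size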
Conditions: P. falciparum in erythrocytes, SYBR Green DNA, 72 h; series mostly up to 12.8 µM
Inconclusive results are not listed. Active and inactive are the calls of the source. Calls follow the shape of the dose curve; as a rule, active = well fitted inhibition curve with a large enough effect; inconclusive = small, poorly fitted or top-dose-only effect; inactive = flat fitted curve, though single readings scatter. Bridge positions count the residues as written; N and C are the ends. Square brackets hold non-standard residues; d marks the D form. Peptide text beside a SMILES is read from it. * marks the point of attachment. Ileψ(thiazoline)Cys = CC[C@H](C)[C@H](N)C1=N[C@H](C(=O)*)CS1; d(aIle) = CC[C@H](C)[C@@H](N)C(=O)O; dOrn = NCCC[C@@H](N)C(=O)O
observed-property: outcome

• NC(=O)N[C@H]1NC(=O)NC1=O = inactive
• CC(=O)OCC(=O)[C@@]1(O)[C@H](C)C[C@@H]2[C@H]3CCC4=CC(=O)C=C[C@]4(C)[C@]3(F)[C@@H](O)C[C@@]21C = inactive
• C[C@H](CCC(=O)O)[C@H]1CC[C@@H]2[C@@H]3[C@@H](O)C[C@H]4C[C@@H](O)CC[C@@]4(C)[C@H]3CC[C@@]21C = inactive
• NC(=O)c1ccc[n+]([C@@H]2O[C@H](COP(=O)([O-])OP(=O)(O)OC[C@H]3O[C@@H](n4cnc5c(N)ncnc54)[C@@H](O)[C@@H]3O)[C@@H](O)[C@@H]2O)c1 = inactive
• CN(C)CCc1c[nH]c2ccc(CC3COC(=O)N3)cc12 (stereo not drawn) = inactive
• C[C@@]12C=CC(=O)C=C1CCC1C3CC(O)[C@@](O)(C(=O)CO)[C@]3(C)CC(O)[C@]12F (stereo partly drawn) = inactive
• CCC(C)C(=O)OC1CCC=C2C=CC(C)C(CCC3CC(O)CC(=O)O3)[C@@H]21 (stereo partly drawn) = inactive
• CC[C@H](C)[C@H](N)C1=N[C@H](C(=O)N[C@@H](CC(C)C)C(=O)N[C@@H](CCC(=O)O)C(=O)N[C@@H](C(=O)N[C@H]2CCCCNC(=O)[C@@H](CC(N)=O)NC(=O)[C@@H](CC(=O)O)NC(=O)[C@@H](Cc3cnc[nH]3)NC(=O)[C@@H](Cc3ccccc3)NC(=O)[C@@H]([C@@H](C)CC)NC(=O)[C@@H](CCCN)NC2=O)[C@@H](C)CC)CS1 ({Ileψ(thiazoline)Cys}-LE[d(aIle)]K[dOrn][d(aIle)][dF][dH][dD][dN]; lactam 4-C) = inactive

---

Assay: Confirmation and Secondary Assay for Modulators of Hemoglobin Beta Chain Splicing at IVS2 705 locus (AID 930);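 note: GFP fluorescence per well restored by corrected splicing of the IVS2-705 intron in EGFP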;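 for activation: HeLa cells stably expressing the EGFP-705 splicing reporter; % of control where 0% means no effect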
Details: HeLa EGFP-705 splicing reporter, GFP fluorescence, 48 h; series mostly up to 46.1 µM
The source made the active and inactive calls. The call rests on the fitted dose curve; in most records, active means well fitted activation curve with a large enough effect; inconclusive means small, poorly fitted or top-dose-only effect; inactive means flat fitted curve, though single readings scatter.
Labels: active, inactive

- NC(Cn1ccc(=O)c(O)c1)C(=O)O (stereo unspecified): inactive
- COC1=CC(=O)C(C(=O)c2ccccc2)=CC1=O: inactive
- COc1c(O)cccc1O: inactive
- COc1c(O)cc2c(c1O)C1OC(CO)C(O)[C@H](O)[C@H]1OC2=O (stereo partly specified): inactive
- C[C@@]12CCC(=O)C=C1C=CC1C2CC[C@]2(C)C1CC[C@@]21CCC(=O)O1 (stereo partly specified): inactive
- CC(CN(C)C)CN1c2ccccc2Sc2ccccc21 (stereo unspecified): inactive
- CC1(C)OC2CO[C@]3(COS(N)(=O)=O)OC(C)(C)OC3C2O1 (stereo partly specified): inactive
- COc1ccc2cc1Oc1ccc(cc1)CC1c3c(cc4c(c3Oc3cc5c(cc3OC)CCN(C)C5C2)OCO4)CCN1C (stereo unspecified): inactive
- OCC1OC(n2cnc3c(=S)nc[nH]c32)C(O)C1O (stereo unspecified): active
- OCc1ccccc1O[C@H]1OC(CO)C(O)C(O)C1O (stereo partly specified): inactive
- COc1c(C(C)C)oc2cc3oc(=O)ccc3cc12: inactive

Hello, the source for this data is PubChem BioAssay (NCATS), in case you need it.
